target: Human HER3, endogenous, on human cancer cell lines (human, UniProt P21860 20-1342); test: cell-based or functional assay
Reported values of BT-474 proliferation % inhibition at 10 µg/ml IgG for individual entries
All answers are understood in %, so give the number only.

-- ask Write down BT-474 proliferation % inhibition at 10 µg/ml IgG measured for item MOR10701 (antibody, human IgG1, kappa, V domains shown, tested as IgG) VH: EVQLLESGGGLVQPGGSLRLSCAASGFTFSSYAMSWVRQAPGKGLEWVSVTGAVGRSTYYPDSVKGRFTISRDNSKNTLYLQMNSLRAEDTAVYYCARWGDEGFDIWGQGTLVTVSS VL: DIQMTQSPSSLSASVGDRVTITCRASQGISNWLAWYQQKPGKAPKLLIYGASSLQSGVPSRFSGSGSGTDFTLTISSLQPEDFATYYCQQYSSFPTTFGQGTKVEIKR
-- reply 43.6

Next item in the queue.
-- ask Write down BT-474 proliferation % inhibition at 10 µg/ml IgG measured for item MOR09825 (antibody, human IgG1, kappa, V domains shown, tested as IgG) VH: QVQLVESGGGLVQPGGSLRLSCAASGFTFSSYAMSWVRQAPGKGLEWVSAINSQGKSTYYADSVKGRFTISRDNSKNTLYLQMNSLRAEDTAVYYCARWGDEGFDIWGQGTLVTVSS VL: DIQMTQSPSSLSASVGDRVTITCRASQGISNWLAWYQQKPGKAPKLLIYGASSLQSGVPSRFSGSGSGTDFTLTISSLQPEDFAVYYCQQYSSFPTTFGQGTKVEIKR
-- reply 37.2
